# zone of inhibition at 1 mg/disc values compiled below
System: Mannhemia hemolytica KB345
ASSAY METHOD TEXT: Paper disc assay, M. hemolytica KB345 (Tilmicosin-sensitivity strain)
Assay type: cell-based
MEASUREMENT CONDITIONS: 24 h, Table 2; 1 mg/6 mm disk
Response body: numeric value in mm, unit text excluded.

The following compounds have reported results that may help.
* CC[C@H]1OC(=O)C[C@@H](O)[C@H](C)[C@@H](O[C@@H]2OC(C)[C@@H](O)C(N(C)C)C2O)[C@@H](CCn2cc(-c3ccccc3)nn2)C[C@@H](C)C(=O)/C=C/C(C)=C/[C@@H]1CO[C@@H]1OC(C)[C@@H](O)C(OC)C1OC (stereo partly drawn) [YT13] | 11
* CC[C@H]1OC(=O)C[C@@H](O)[C@H](C)[C@@H](O[C@@H]2O[C@H](C)[C@@H](O)C(N(C)C)C2O)[C@@H](CCN2CC(C)CC(C)C2)C[C@@H](C)C(=O)/C=C/C(C)=C/[C@@H]1CO[C@@H]1OC(C)[C@@H](O)[C@H](OC)C1OC (stereo partly drawn) [Tilmicosin, reference compound] | 10.7
* CC[C@H]1OC(=O)C[C@@H](O)[C@H](C)[C@@H](O[C@@H]2OC(C)[C@@H](O)C(N(C)C)C2O)[C@@H](CCn2cc(-c3cc(C)c(C)cc3C)nn2)C[C@@H](C)C(=O)/C=C/C(C)=C/[C@@H]1CO[C@@H]1OC(C)[C@@H](O)C(OC)C1OC (stereo partly drawn) [YT25] | 8

Return reported zone of inhibition at 1 mg/disc. Input compound: CCCCc1cn(CC[C@H]2C[C@@H](C)C(=O)/C=C/C(C)=C/[C@H](CO[C@@H]3OC(C)[C@@H](O)C(OC)C3OC)[C@@H](CC)OC(=O)C[C@@H](O)[C@H](C)[C@H]2O[C@@H]2OC(C)[C@@H](O)C(N(C)C)C2O)nn1 (stereo partly drawn) [YT20] 9

Return reported zone of inhibition at 1 mg/disc. Input compound: CC[C@H]1OC(=O)C[C@@H](O)[C@H](C)[C@@H](O[C@@H]2OC(C)[C@@H](O)C(N(C)C)C2O)[C@@H](CCn2cc(-c3ccc(Oc4ccccc4)cc3)nn2)C[C@@H](C)C(=O)/C=C/C(C)=C/[C@@H]1CO[C@@H]1OC(C)[C@@H](O)C(OC)C1OC (stereo partly drawn) [YT24] 8.5

Return reported zone of inhibition at 1 mg/disc. Input compound: CC[C@H]1OC(=O)C[C@@H](O)[C@H](C)[C@@H](O[C@@H]2OC(C)[C@@H](O)C(N(C)C)C2O)[C@@H](CCn2cc(-c3ccccn3)nn2)C[C@@H](C)C(=O)/C=C/C(C)=C/[C@@H]1CO[C@@H]1OC(C)[C@@H](O)C(OC)C1OC (stereo partly drawn) [YT12] 9

* * *

Tested on: Mannhemia hemolytica KB345
ASSAY METHOD TEXT: Paper disc assay, M. hemolytica KB345 (Tilmicosin-sensitivity strain)
Format: cell-based
MEASUREMENT CONDITIONS: Table 4; 100 mg/6 mm disk
EXPERIMENTAL ENDPOINT: Inhibition zone (mm)

• CC[C@H]1OC(=O)C[C@@H](O)[C@H](C)[C@@H](O[C@@H]2O[C@H](C)[C@@H](O)[C@H](N(C)C)[C@H]2O)[C@@H](CC=O)C[C@@H](C)C(=O)/C=C/C(C)=C/[C@@H]1CO [YT106, 5-O-mycaminosyltylonolide] = 15.0 mm
• CC[C@H]1OC(=O)C[C@@H](O)[C@H](C)[C@@H](O[C@@H]2O[C@H](C)[C@@H](O)[C@H](N(C)C)[C@H]2O)[C@@H](CCn2cc(-c3ccccc3)nn2)C[C@@H](C)C(=O)/C=C/C(C)=C/[C@@H]1CO = 29.0 mm
• CCC1OC(=O)CC(O)C(C)C(OC2OC(C)C(O)C(N(C)C)C2O)C(CC=O)CC(C)C(=O)C=CC(C)=CC1CN=[N+]=[N-] (stereo not shown) = 21.5 mm

From here, focus on the item given below.
Return reported Inhibition zone (mm). Input compound: `CC[C@H]1OC(=O)C[C@@H](O)[C@H](C)[C@@H](O[C@@H]2O[C@H](C)[C@@H](O)[C@H](N(C)C)[C@H]2O)[C@@H](CCn2cc(-c3ccccc3)nn2)C[C@@H](C)C(=O)/C=C/C(C)=C/[C@@H]1CN=[N+]=[N-]` 21.0 mm

* * *

System: Xanthomonas campestris KB88
ASSAY METHOD TEXT: Paper disc assay, Xanthomonas campestris (X)
Format: cell-based
MEASUREMENT CONDITIONS: 10 mg/6 mm disc
EXPERIMENTAL ENDPOINT: Inhibition zone (mm)
Response body: numeric value in mm, unit text excluded.

The following molecules have reported results that may help.
• CC[C@H]1OC(=O)C[C@@H](O)[C@H](C)[C@@H](O[C@@H]2OC(C)[C@@H](O)C(N(C)C)C2O)[C@@H](CCn2cc(-c3ccccc3)nn2)C[C@@H](C)C(=O)/C=C/C(C)=C/[C@@H]1CO[C@@H]1OC(C)[C@@H](O)C(OC)C1OC (stereo partly drawn) = 23.5
• CC[C@H]1OC(=O)C[C@@H](O)[C@H](C)[C@@H](O[C@@H]2O[C@H](C)[C@@H](O)[C@H](N(C)C)[C@H]2O)[C@@H](CCn2cc(-c3ccsc3)nn2)C[C@@H](C)C(=O)/C=C/C(C)=C/[C@@H]1CO[C@@H]1O[C@H](C)[C@@H](O)[C@@H](OC)[C@H]1OC = 22
• CC[C@H]1OC(=O)C[C@@H](O)[C@H](C)[C@@H](O[C@@H]2O[C@H](C)[C@@H](O)C(N(C)C)C2O)[C@@H](CCN2CC(C)CC(C)C2)C[C@@H](C)C(=O)/C=C/C(C)=C/[C@@H]1CO[C@@H]1OC(C)[C@@H](O)[C@H](OC)C1OC (stereo partly drawn) [Tilmicosin, reference compound] = 30
• CC[C@H]1OC(=O)C[C@@H](O)[C@H](C)[C@@H](O[C@@H]2OC(C)[C@@H](O)C(N(C)C)C2O)[C@@H](CCn2cc(CCCCCl)nn2)C[C@@H](C)C(=O)/C=C/C(C)=C/[C@@H]1CO[C@@H]1OC(C)[C@@H](O)C(OC)C1OC (stereo partly drawn) = 23
• CC[C@H]1OC(=O)C[C@@H](O)[C@H](C)[C@@H](O[C@@H]2OC(C)[C@@H](O)C(N(C)C)C2O)[C@@H](CCn2cc(-c3ccc(N(C)C)cc3)nn2)C[C@@H](C)C(=O)/C=C/C(C)=C/[C@@H]1CO[C@@H]1OC(C)[C@@H](O)C(OC)C1OC (stereo partly drawn) = 24

From here, focus on the item given below.
Return reported Inhibition zone (mm). Input molecule: CC[C@H]1OC(=O)C[C@@H](O)[C@H](C)[C@@H](O[C@@H]2OC(C)[C@@H](O)C(N(C)C)C2O)[C@@H](CCn2cc(-c3ccccn3)nn2)C[C@@H](C)C(=O)/C=C/C(C)=C/[C@@H]1CO[C@@H]1OC(C)[C@@H](O)C(OC)C1OC (stereo partly drawn) 27

* * *

# zone of inhibition at 1 mg/disc values compiled below
Tested on: Mannhemia hemolytica KB345
ASSAY METHOD TEXT: Paper disc assay, M. hemolytica KB345 (Tilmicosin-sensitivity strain)
Type: cell-based
MEASUREMENT CONDITIONS: 24 h, Table 2; 1 mg/6 mm disk
Response body: numeric value in mm, unit text excluded.

- CCCNC[C@]1(O)[C@H](C)O[C@@H](O[C@H]2[C@H](C)[C@@H](O[C@@H]3O[C@H](C)C[C@H](N(C)C)[C@H]3O)[C@](C)(O)C[C@@H](C)CN[C@H](C)[C@@H](O)[C@](C)(O)[C@@H](CC)OC(=O)[C@@H]2C)C[C@@]1(C)OC [Tulathromycin, reference compound]: 12.5

Return reported zone of inhibition at 1 mg/disc. Input molecule: CC[C@H]1OC(=O)C[C@@H](O)[C@H](C)[C@@H](O[C@@H]2OC(C)[C@@H](O)C(N(C)C)C2O)[C@@H](CCn2cc(-c3ccc(-c4ccccc4)cc3)nn2)C[C@@H](C)C(=O)/C=C/C(C)=C/[C@@H]1CO[C@@H]1OC(C)[C@@H](O)C(OC)C1OC (stereo partly shown) 11.5

Return reported zone of inhibition at 1 mg/disc. Input molecule: `CC[C@H]1OC(=O)C[C@@H](O)[C@H](C)[C@@H](O[C@@H]2O[C@H](C)[C@@H](O)[C@H](N(C)C)[C@H]2O)[C@@H](CCn2cc(-c3ccsc3)nn2)C[C@@H](C)C(=O)/C=C/C(C)=C/[C@@H]1CO[C@@H]1O[C@H](C)[C@@H](O)[C@@H](OC)[C@H]1OC` 11

Return reported zone of inhibition at 1 mg/disc. Input molecule: CCOC(=O)c1cn(CC[C@H]2C[C@@H](C)C(=O)/C=C/C(C)=C/[C@H](CO[C@@H]3OC(C)[C@@H](O)C(OC)C3OC)[C@@H](CC)OC(=O)C[C@@H](O)[C@H](C)[C@H]2O[C@@H]2OC(C)[C@@H](O)C(N(C)C)C2O)nn1 (stereo partly shown) 7.5
